Target: GST-Aq-NF-kB (Amphimedon queenslandica, UniProt A9Y5G7 2-389)
Sequence: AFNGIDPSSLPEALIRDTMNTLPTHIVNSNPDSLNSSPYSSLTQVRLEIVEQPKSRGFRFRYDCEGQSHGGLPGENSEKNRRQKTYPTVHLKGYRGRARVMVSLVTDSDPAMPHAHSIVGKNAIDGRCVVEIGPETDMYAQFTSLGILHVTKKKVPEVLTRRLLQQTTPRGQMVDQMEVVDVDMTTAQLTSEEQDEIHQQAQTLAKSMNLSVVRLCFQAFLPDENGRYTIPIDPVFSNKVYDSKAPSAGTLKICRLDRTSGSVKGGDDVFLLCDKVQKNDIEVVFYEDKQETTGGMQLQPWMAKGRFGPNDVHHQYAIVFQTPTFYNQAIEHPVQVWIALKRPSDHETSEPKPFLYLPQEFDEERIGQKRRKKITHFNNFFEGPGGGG
Experiment: protein-binding microarray (PBM); PBM: ~300 nM protein, 6 mM HEPES pH 7.8, 80 mM KCl, 0.5 mM EDTA, 0.5 mM EGTA, 6% glycerol, 35 ng/ul poly-dIdC, 1% milk, 1 h, room temperature; high values mean tight binding
Conditions: dsDNA, one strand shown
binding signal values for the sequences below.
value.kind: binding signal (z-score)

macromolecule.sequence	system.under.test	readout.unit	reported.result
CCGATTAACATCAATAGTTCCCCTGATGTTAATCGGGTCTTGATTCGCTTGACGCTGCTG	GST-Aq-NF-kB (Amphimedon queenslandica, UniProt A9Y5G7 2-389)	z-score	5.01
CCGATTAACATCAAAGTTTTCCCTGATGTTAATCGGGTCTTGATTCGCTTGACGCTGCTG	GST-Aq-NF-kB (Amphimedon queenslandica, UniProt A9Y5G7 2-389)	z-score	4.93
CCGATTAACATCAAGCATCCCCCTGATGTTAATCGGGTCTTGATTCGCTTGACGCTGCTG	GST-Aq-NF-kB (Amphimedon queenslandica, UniProt A9Y5G7 2-389)	z-score	4.87

---

Target: GST-Hu-p50 (Homo sapiens, UniProt P19838 7-356)
Sequence (P19838 7-356): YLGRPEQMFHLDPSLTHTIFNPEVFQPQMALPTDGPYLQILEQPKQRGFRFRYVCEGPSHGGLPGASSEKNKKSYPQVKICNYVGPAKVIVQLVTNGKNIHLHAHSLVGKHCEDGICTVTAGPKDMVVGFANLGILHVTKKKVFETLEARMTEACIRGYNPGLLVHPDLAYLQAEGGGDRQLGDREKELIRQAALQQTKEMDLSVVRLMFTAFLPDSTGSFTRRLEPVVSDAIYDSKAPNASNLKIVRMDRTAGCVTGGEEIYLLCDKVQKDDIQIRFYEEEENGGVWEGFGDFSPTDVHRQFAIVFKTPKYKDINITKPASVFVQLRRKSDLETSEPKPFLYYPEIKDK
Assay: protein-binding microarray (PBM); PBM: ~300 nM protein, 6 mM HEPES pH 7.8, 80 mM KCl, 0.5 mM EDTA, 0.5 mM EGTA, 6% glycerol, 35 ng/ul poly-dIdC, 1% milk, 1 h, room temperature; high values mean tight binding
Settings: dsDNA, one strand shown
Please note: binding signal exactly at 5 z-score is -1. Only values below 5 z-score get 1.

macromolecule.sequence	discrete.label
CCGATTAACATCAGATTTCCCCCTGATGTTAATCGGGTCTTGATTCGCTTGACGCTGCTG	-1
CCGATTAACATCAGGAACTCCCCTGATGTTAATCGGGTCTTGATTCGCTTGACGCTGCTG	-1
CCGATTAACATCAGGGGATGCACTGATGTTAATCGGGTCTTGATTCGCTTGACGCTGCTG	1
CCGATTAACATCAGCTAGTCCCTTGATGTTAATCGGGTCTTGATTCGCTTGACGCTGCTG	1
CCGATTAACATCACTTTTTCCCCTGATGTTAATCGGGTCTTGATTCGCTTGACGCTGCTG	-1
CCGATTAACATCAAGGGGGGTATTGATGTTAATCGGGTCTTGATTCGCTTGACGCTGCTG	1

---

Biological target: GST-Dm-Relish (Drosophila melanogaster, UniProt Q94527 99-473)
Sequence: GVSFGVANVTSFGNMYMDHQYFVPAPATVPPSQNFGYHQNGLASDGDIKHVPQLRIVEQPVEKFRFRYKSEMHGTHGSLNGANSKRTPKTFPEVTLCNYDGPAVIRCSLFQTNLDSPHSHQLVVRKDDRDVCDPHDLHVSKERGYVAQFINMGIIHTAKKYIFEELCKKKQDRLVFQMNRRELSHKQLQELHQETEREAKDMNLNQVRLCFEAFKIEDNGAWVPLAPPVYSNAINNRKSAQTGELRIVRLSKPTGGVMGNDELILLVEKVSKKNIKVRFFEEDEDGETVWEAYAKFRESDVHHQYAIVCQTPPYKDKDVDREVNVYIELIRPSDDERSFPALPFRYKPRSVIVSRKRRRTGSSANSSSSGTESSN
Assay: protein-binding microarray (PBM); PBM: ~300 nM protein, 6 mM HEPES pH 7.8, 80 mM KCl, 0.5 mM EDTA, 0.5 mM EGTA, 6% glycerol, 35 ng/ul poly-dIdC, 1% milk, 1 h, room temperature; Ap Aiptasia and Nv Nematostella (sea anemones) / Co Capsaspora / Aq Amphimedon (sponge) / Dm Drosophila / Hu human; RHD is the Rel homology domain; high values mean tight binding
Conditions: dsDNA, one strand shown
Parameter threshold = 3 z-score. Response is Condition met when binding signal meets or exceeds it, else Condition not met.

macromolecule.sequence	discrete.label
CCGATTAACATCACGTATTCCCCTGATGTTAATCGGGTCTTGATTCGCTTGACGCTGCTG	Condition met
CCGATTAACATCAAAAAACCCCCTGATGTTAATCGGGTCTTGATTCGCTTGACGCTGCTG	Condition met
CCGATTAACATCAGGCAACCCCATGATGTTAATCGGGTCTTGATTCGCTTGACGCTGCTG	Condition not met
CCGATTAACATCAGAAAAACACCTGATGTTAATCGGGTCTTGATTCGCTTGACGCTGCTG	Condition met
CCGATTAACATCAGGGCTCCCCATGATGTTAATCGGGTCTTGATTCGCTTGACGCTGCTG	Condition met
CCGATTAACATCAACGAATTCCCTGATGTTAATCGGGTCTTGATTCGCTTGACGCTGCTG	Condition not met
CCGATTAACATCACCTATTCCCCTGATGTTAATCGGGTCTTGATTCGCTTGACGCTGCTG	Condition not met
CCGATTAACATCAAAACAGTCCCTGATGTTAATCGGGTCTTGATTCGCTTGACGCTGCTG	Condition met
CCGATTAACATCAAAATTCCCGTTGATGTTAATCGGGTCTTGATTCGCTTGACGCTGCTG	Condition met
CCGATTAACATCAGCACCCCCCCTGATGTTAATCGGGTCTTGATTCGCTTGACGCTGCTG	Condition met
CCGATTAACATCAGATTTCCCCCTGATGTTAATCGGGTCTTGATTCGCTTGACGCTGCTG	Condition met
CCGATTAACATCAGGGGCTTACCTGATGTTAATCGGGTCTTGATTCGCTTGACGCTGCTG	Condition met
CCGATTAACATCACTGGGAATTCTGATGTTAATCGGGTCTTGATTCGCTTGACGCTGCTG	Condition met
CCGATTAACATCAAGGTTTTCCCTGATGTTAATCGGGTCTTGATTCGCTTGACGCTGCTG	Condition met
CCGATTAACATCAGGACAATCCCTGATGTTAATCGGGTCTTGATTCGCTTGACGCTGCTG	Condition not met
CCGATTAACATCAAACATTCCCATGATGTTAATCGGGTCTTGATTCGCTTGACGCTGCTG	Condition not met
